Target: T1, recombinant human IL-17A (human, UniProt Q16552 24-155)
T1 construct: Bought recombinant protein (Peprotech AF-200-17); also called Peprotech AF-200-17
T1 sequence (Q16552 24-155): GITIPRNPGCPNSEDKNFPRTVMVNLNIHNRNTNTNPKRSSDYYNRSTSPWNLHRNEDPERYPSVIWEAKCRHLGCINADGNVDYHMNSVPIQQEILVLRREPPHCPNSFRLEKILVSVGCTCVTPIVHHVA
Experiment: SPR (BIAcore T200), IL-17A coupled to CM5 chip, single-cycle kinetics;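 also: VH domain analytes, kinetic constants obtained by fitting blank-corrected sensorgrams to a 1:1 binding model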
Task for the reader: assign each of the following binders its reported koff.
Put your answer as a value accompanied by its unit after it.

Enquiry: Need koff, item Clone 1.2 (VHH) VHH: EVQLVESGGGLVQPGGSLRLSCAASGFTFSSYSMYWVRQAPGKGLEWVAEIKQDGSVQYYVSDVKGRFTISRDNAKNSLYLQMNSLRAEDTAVYYCAKGEILPLYFDYWGQGTLVTVSS
Return: 0.000485 s⁻¹

Enquiry: I'd like to know its koff. The binder in question is VH 1.10.1 (clone 1.10 expressed from phagemid vector: with linker residues and His tag) (VHH, Human single VH domain) VHH: EVQLVESGGGLVQPGGSLRLSCAASGFTFSSYRMYWVRQAPGKGLEWVASIEQDGSEEYYVDSVKGRFTISRDNAKKSLFLQMNSLRAEDTAVYYCAKGEILPLYFDYWGQGTLVTVSS
Return: 0.000966 s⁻¹

Enquiry: Which value of koff has been reported for Clone 1.15 (VHH, Human single VH domain) VHH: EVQLVESGGGLVQPGGSLRLSCAASGFTFSSYSMYWVRQAPGKGLEWVAEIRQDGSEQYYVDSVKGRFTISRDNAKNSLYLQMNSLRAEDTAVYYCAKGEILPLYFDYWGQGTLVTVSS in the records?
Return: 0.000242 s⁻¹

Enquiry: Item under review: Clone 1.14 (VHH, Human single VH domain) VHH: EVQLVESGGGLVQRGGSLRLSCAASGFTFSSYRMYWVRQAPGKGLEWVASIEQDGSEEYYVDSVKGRFTISRDNAKKSLFLQMNSLRAEDTAVYYCAKGEILPLYFDYWGQGTLVTVSS . Reported koff?
Return: 0.000688 s⁻¹

Enquiry: For the binder Clone 1.8 (VHH, Human single VH domain) VHH: QVQLVESGGGLVQPGGSLRLSCAASGFTFSSYGMYWVRQAPGKGLEWVAKIEQDGSEKYYVDSVKGRFTISRDNAKNSLFLQMNSLRAEDTAVYYCAKGEILPLYFDYWGQGTLVTVSS , what koff is on record?
Return: 0.000429 s⁻¹

Enquiry: I'd like to know its koff. The binder in question is Clone 1.22 (VHH, Human single VH domain) VHH: EVQLVESGGGLVRPGGSLRLSCAASGFTFSSYGMYWVRQAPGKGLEWVAKIEQDGSEEYYVDSVKGRFTISRDNAKKSLYLQMNSLRAEDTAVYYCAKGEILPLYFDYWGQGTLVTVSS
Return: 0.000126 s⁻¹

Enquiry: Quick one: koff for VH 1.7.1 (clone 1.7 expressed from phagemid vector: with linker residues and His tag) (VHH, Human single VH domain) VHH: QVQLVESGGGLVQPGGSLRLSCAASGFTFSSYGMYWVRQAPGKGLEWVAKIEQDGSEEYYVDSVKGRFTISRDNAKKSLYLQMNSLRAEDTAVYYCAKGEILPLYFDYWGQGTLVTVSS ?
Return: 0.000466 s⁻¹
